# test-description: Human clearance and half-life projections (allometric scaling from monkey clearance)
# conditions: single species scaling from monkey clearance
CL (mL/min/kg), projected human clearance listing for selected compounds.
measurement-label: CL (mL/min/kg), projected human clearance

compound	unit-abbrev	value-measured
Cc1ccc2c(c1)Oc1cc(F)ccc1N=C2N1CCN(CC(C)(C)C(=O)O)CC1 [Compound No. 6]	mL/min/kg	0.3
Cc1ccc2c(c1)Oc1cc(C)ccc1C(N1CCN(CC(C)(C)C(=O)O)CC1)=N2 [Compound No. 7]	mL/min/kg	1.3
CC(C)(CN1CCN(C2=Nc3ccccc3Cc3ccccc32)CC1)C(=O)O [Compound No. 8]	mL/min/kg	1.8
CC(C)(CN1CCN(C2=Nc3ccccc3Oc3cc(C(F)F)ccc32)CC1)C(=O)O [Compound No. 36]	mL/min/kg	0.4

###

# test-target: H1 (Homo sapiens (Human), UniProt P35367)
# Sequence (P35367 whole entry): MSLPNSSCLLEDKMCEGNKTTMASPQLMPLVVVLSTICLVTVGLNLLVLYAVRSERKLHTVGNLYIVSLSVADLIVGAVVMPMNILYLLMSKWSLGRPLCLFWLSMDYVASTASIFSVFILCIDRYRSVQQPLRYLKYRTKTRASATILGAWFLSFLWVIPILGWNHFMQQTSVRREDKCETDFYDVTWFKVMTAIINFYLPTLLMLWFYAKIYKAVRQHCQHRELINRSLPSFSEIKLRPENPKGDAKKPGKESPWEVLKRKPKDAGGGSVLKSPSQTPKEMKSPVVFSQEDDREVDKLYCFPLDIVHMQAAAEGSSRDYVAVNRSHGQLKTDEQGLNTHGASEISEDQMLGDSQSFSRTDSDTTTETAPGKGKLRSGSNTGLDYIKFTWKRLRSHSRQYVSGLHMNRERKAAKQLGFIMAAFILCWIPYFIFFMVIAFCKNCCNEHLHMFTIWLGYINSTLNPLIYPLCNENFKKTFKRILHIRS
# test-description: H1 binding assay ([3H]pyrilamine, HEK293 stable cell line membranes)
# conditions: numeric values

compound	unit-abbrev	Ki
CC(CN1CCN(C2=Nc3ccccc3Cc3ccccc32)CC1)C(=O)O (centres unmarked) [A-1, reference compound]	nM	104
CC(C)(CN1CCN(C2=Nc3ccccc3Cc3ccccc32)CC1)C(=O)O	nM	46

###

# test-target: 5-HT2C (Homo sapiens (Human), UniProt P28335)
# Sequence (P28335 33-458): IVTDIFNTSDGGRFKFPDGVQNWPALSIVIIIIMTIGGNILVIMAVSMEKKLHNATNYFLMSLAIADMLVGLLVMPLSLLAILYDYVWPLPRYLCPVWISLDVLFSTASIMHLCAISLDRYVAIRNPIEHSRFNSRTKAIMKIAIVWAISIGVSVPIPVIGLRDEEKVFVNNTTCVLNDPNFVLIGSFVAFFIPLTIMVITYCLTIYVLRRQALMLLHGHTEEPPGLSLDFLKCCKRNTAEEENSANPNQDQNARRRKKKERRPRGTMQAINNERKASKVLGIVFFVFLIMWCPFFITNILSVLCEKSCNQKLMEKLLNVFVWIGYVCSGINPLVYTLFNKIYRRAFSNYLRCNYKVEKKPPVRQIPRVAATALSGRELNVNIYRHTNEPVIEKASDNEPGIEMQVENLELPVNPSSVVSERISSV
# test-description: 5-HT2C binding assay ([3H]-Mesulergine, HEK293 membranes)
# conditions: numeric values
# Protocol: 5-HT2C Binding Assay Protocol The testing compounds were diluted with DMSO, starting at 2 mM, with 8-points and 5-fold serial dilutions. 1 μL of a compound of the present disclosure the reference compound (Table J) was transferred to an assay plate. […] ^3H trapped on filters were counted using Perkin Elmer MicroBeta2 Reader. Inhibition constants were calculated using the following equation: [formula] The data was analyzed using Prism 5. […]
measurement-label: Ki (µM)

compound	measurement-label	value-measured
CC(C)(CN1CCN(C2=Nc3ccccc3Oc3ccccc32)CC1)C(=O)O [A-5, reference compound]	Ki	0.68
Cc1ccc2c(c1)Oc1ccc(C)cc1C(N1CCN(CC(C)(C)C(=O)O)CC1)=N2 [A-3, reference compound]	Ki	0.125
Cc1ccc2c(c1)N=C(N1CCN(CC(C)(C)C(=O)O)CC1)c1cc(C)ccc1O2 [A-2, reference compound]	Ki	0.265
Cc1ccc2c(c1)N=C(N1CCN(CC(C)(C)C(=O)O)CC1)c1ccc(C)cc1O2 [A-4, reference compound]	Ki	0.772
Cc1ccc2c(c1)Oc1cc(C)ccc1C(N1CCN(CC(C)(C)C(=O)O)CC1)=N2 [Compound No. 7]	Ki	2.22

###

# test-target: H1 (Homo sapiens (Human))
# test-description: H1 binding assay ([3H]pyrilamine, HEK293 stable cell line membranes)
# conditions: Table E, class symbols
measurement-label: Ki

smiles	measurement-label	value-measured
CCc1ccc2c(c1)Oc1cc(Cl)ccc1N=C2N1CCN(CC(C)(C)C(=O)O)CC1	Ki	0.025 to 0.05 µM
Cc1ccc2c(c1)Oc1cc(F)ccc1C(N1CCN(CC(C)(C)C(=O)O)CC1)=N2	Ki	0.001 to 0.025 µM
O=C(O)C1(CN2CCN(C3=Nc4ccc(F)cc4Oc4cc(F)ccc43)CC2)CC1	Ki	0.001 to 0.025 µM
Cc1ccc2c(c1)Cc1ccccc1C(N1CCN(CC(C)(C)C(=O)O)CC1)=N2	Ki	> 0.05 µM
CC(C)c1ccc2c(c1)Oc1cc(Cl)ccc1N=C2N1CCN(CC(C)(C)C(=O)O)CC1	Ki	0.025 to 0.05 µM
CC(C)(CN1CCN(C2=Nc3ccccc3Cc3ccccc32)CC1)C(=O)O	Ki	0.025 to 0.05 µM
Cc1ccc2c(c1)Oc1cc(F)ccc1N=C2N1CCN(CC(C)(C)C(=O)O)CC1	Ki	0.001 to 0.025 µM
Cc1ccc2c(c1)Oc1cc(C(F)F)ccc1C(N1CCN(CC(C)(C)C(=O)O)CC1)=N2	Ki	> 0.05 µM
